study system: Beta-lactamase (Escherichia coli K-12)
assay name: Hydrolysis rate by the beta-lactamase from Escherichia coli 6 relative to cephaloridine.
Quick rule: Relative hydrolysis rate of at least 40 means Fulfilled, below that means Not fulfilled.

These recorded examples may help you get a feel for the data.
Task: State whether the measured Relative hydrolysis rate reaches 40, counting equality as reaching it, for Cn1nnnc1SCC1=C(C(=O)O)N2C(=O)C(NC(=O)Cc3csc(N)n3)C2OC1 (stereo not given)
Result: Fulfilled

Task: State whether the measured Relative hydrolysis rate reaches 40, counting equality as reaching it, for CC1=C(C(=O)O)N2C(=O)C(NC(=O)CSC(F)(F)F)C2SC1 (stereo not given)
Result: Fulfilled

Task: State whether the measured Relative hydrolysis rate reaches 40, counting equality as reaching it, for CC1=C(C(=O)O)N2C(=O)C(NC(=O)C(N)c3ccccc3)C2OC1 (stereo not given)
Result: Fulfilled

Next:
Task: State whether the measured Relative hydrolysis rate reaches 40, counting equality as reaching it, for Cn1nnnc1SCC1=C(C(=O)O)N2C(=O)C(NC(=O)C(O)c3ccccc3)C2SC1 (stereo not given)
Result: Not fulfilled

Task: State whether the measured Relative hydrolysis rate reaches 40, counting equality as reaching it, for Cc1nnc(SCC2=C(C(=O)O)N3C(=O)C(NC(=O)Cn4cnnn4)C3OC2)s1 (stereo not given)
Result: Fulfilled

Task: State whether the measured Relative hydrolysis rate reaches 40, counting equality as reaching it, for `CC1=C(C(=O)O)N2C(=O)[C@@H](NC(=O)[C@H](N)c3ccccc3)[C@H]2SC1`
Result: Fulfilled

Task: State whether the measured Relative hydrolysis rate reaches 40, counting equality as reaching it, for Cn1nnnc1SCC1=C(C(=O)O)N2C(=O)C(NC(=O)Cc3ccc(O)cc3)C2SC1 (stereo not given)
Result: Fulfilled

Task: State whether the measured Relative hydrolysis rate reaches 40, counting equality as reaching it, for CC1=C(C(=O)O)N2C(=O)C(NC(=O)CSC(F)(F)F)C2OC1 (stereo not given)
Result: Fulfilled

Task: State whether the measured Relative hydrolysis rate reaches 40, counting equality as reaching it, for Cn1nnnc1SCC1=C(C(=O)O)N2C(=O)C(NC(=O)/C(=N\O)c3ccc(NS(C)(=O)=O)cc3)C2OC1 (stereo not given)
Result: Not fulfilled

Task: State whether the measured Relative hydrolysis rate reaches 40, counting equality as reaching it, for CCN1CCN(C(=O)NC(C(=O)NC2C(=O)N3C(C(=O)O)=C(CSc4nnnn4C)CSC23)c2ccc(OC(N)=O)cc2)C(=O)C1=O (stereo not given)
Result: Not fulfilled

All values here come from ChEMBL document CHEMBL1121719.
